The reported numbers originate from the supplement of paper PMC6757056.

# key: entry, value: FACS-Seq fitted mean (log10)
B1: library; a variant is named by its letters at N, in order (parent)
chain: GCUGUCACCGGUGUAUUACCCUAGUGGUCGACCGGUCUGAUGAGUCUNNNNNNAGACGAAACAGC

# Variants of: B1
# test_summary: FACS-Seq fitted mean relative fluorescence mCherry/BFP with ligand (log10 relative fluorescence); ligand: hypoxanthine (xanthine aptamer); ligand concentration (+) FACS-Seq: 5 mM; higher = higher reporter protein expression
# condition_description: HEK293T, ligand present: yes
In your answer, state the number alone without any accompanying words.

Consider the variant "ACGAGU" and give its measured FACS-Seq fitted mean (log10). 0.609

Consider the variant "UUACUG" and give its measured FACS-Seq fitted mean (log10). 0.536

Consider the variant "CGUAUA" and give its measured FACS-Seq fitted mean (log10). 0.566

Consider the variant "GUAACG" and give its measured FACS-Seq fitted mean (log10). 0.537

Consider the variant "UAGAAA" and give its measured FACS-Seq fitted mean (log10). 0.469

Consider the variant "ACUACU" and give its measured FACS-Seq fitted mean (log10). 0.443

Consider the variant "GAAUGA" and give its measured FACS-Seq fitted mean (log10). 0.688
